# Tested on: c-Src;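 note: 11-residue human phosphosite peptides and single-mutation variants displayed on the E. coli surface, counted by deep sequencing, each peptide's frequency after selection divided by its frequency in the unselected input library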;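 note: frequency after pTyr selection over input frequency; kinase dosed for 20-30% of maximal phosphorylation in three min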
# PROTOCOL TEXT: phosphorylation enrichment, bacterial display (enrichment ratio); higher = better substrate or ligand; peptides without Tyr show the background
Binary classification by phosphorylation enrichment, with 0.6 as an inclusive lower bound for Met; all other cases are Not met.

Illustrative cases are given below, each with its answer.
SEQUENCE CODE	GROUP LABEL
KGIQLYDTPYE [SHB_Y297]	Met
FKEQGYHRLPS [RIN1_Y681_P686S_YF]	Met

Please tell me: is the sequence CTTIHCNYMCN [TP53_Y234_Y234C] at or over 0.6 in terms of phosphorylation enrichment?
Met

Evaluate MGSYNYLGFPR [SPTLC2_Y178_A182P] : phosphorylation enrichment at minimum 0.6?
Met

Has PEVSGYCHCAD [TG_Y234] a recorded phosphorylation enrichment greater than or equal to 0.6?
Met

In plain terms: is recorded phosphorylation enrichment at least 0.6 for TTASRYLKVSD [MYOM2_Y871_N869S] ?
Not met

Does the sequence ISSLPYMKMIF [SLC4A11_Y853_M848I] have recorded phosphorylation enrichment that is 0.6 or more?
Met

Hi, just wondering whether LRRREYQRQDY [PRKRIP1_Y90] shows phosphorylation enrichment of 0.6 or higher.
Not met

Does the reported phosphorylation enrichment for "LANNEYFFQVC" fall at or above the 0.6 mark?
Met

Given the entry CTTIHYNYVCN [TP53_Y234_M237V] , answer whether its phosphorylation enrichment meets or surpasses 0.6.
Not met

Please indicate if the recorded phosphorylation enrichment for VASSLYDIFAR [GLB1_Y294_L297F] meets or exceeds 0.6.
Met

Please indicate if the recorded phosphorylation enrichment for ETSHNYHKFDS [MATR3_Y243] meets or exceeds 0.6.
Not met

Check the entry SLTGAYASGIP [POM121C_Y378_T379A] : does phosphorylation enrichment equal or exceed 0.6?
Not met

Determine whether this sequence has phosphorylation enrichment no lower than 0.6: IITDFYVDMKF [MPP4_Y567_V562I_YF]
Not met

Exam item: decide whether the reported phosphorylation enrichment for EAEALYQTKFQ [KRT73_Y325] is at least 0.6.
Met

Does the reported phosphorylation enrichment for EEGEEYGGGGG [TUBA1A_Y451] fall at or above the 0.6 mark?
Not met

Please indicate if the recorded phosphorylation enrichment for SHNELYYEAAE [VANGL1_Y344_E347A] meets or exceeds 0.6.
Met

Confirm if phosphorylation enrichment reported for the sequence HIAKGYRRDNP [HARS1_Y156_V155G] is 0.6 or above.
Not met

Assess whether reported phosphorylation enrichment for NNKKDYFDMFE [SLC26A3_Y526_K521N_YF] sits at 0.6 or higher.
Not met

Evaluate KVNKIYHPDFI [LIG3_Y767_Y768H] : phosphorylation enrichment at minimum 0.6?
Not met

Dear colleague, could you confirm whether LLREWYVQDPY [SIX3_Y225_L226V] has phosphorylation enrichment at or above 0.6?
Met

Hi team, for VNFDFYTVNLG [GFPT1_Y367_D366Y_YF] , is the recorded phosphorylation enrichment at or above 0.6?
Met

I'd appreciate it if you could say whether KPRKLYTIKKP [BRD2_Y715_P714L] has phosphorylation enrichment at least equal to 0.6.
Not met

Can CCNHPYRINGA [CHD7_Y1256_L1257R] be said to have phosphorylation enrichment at or above 0.6?
Met
